These entries and their values trace back to ChEMBL document CHEMBL2010728.

Test target: Tyrosine-protein phosphatase YopH (Yersinia pseudotuberculosis serotype I (strain IP32953))
Sequence (P08538 whole entry): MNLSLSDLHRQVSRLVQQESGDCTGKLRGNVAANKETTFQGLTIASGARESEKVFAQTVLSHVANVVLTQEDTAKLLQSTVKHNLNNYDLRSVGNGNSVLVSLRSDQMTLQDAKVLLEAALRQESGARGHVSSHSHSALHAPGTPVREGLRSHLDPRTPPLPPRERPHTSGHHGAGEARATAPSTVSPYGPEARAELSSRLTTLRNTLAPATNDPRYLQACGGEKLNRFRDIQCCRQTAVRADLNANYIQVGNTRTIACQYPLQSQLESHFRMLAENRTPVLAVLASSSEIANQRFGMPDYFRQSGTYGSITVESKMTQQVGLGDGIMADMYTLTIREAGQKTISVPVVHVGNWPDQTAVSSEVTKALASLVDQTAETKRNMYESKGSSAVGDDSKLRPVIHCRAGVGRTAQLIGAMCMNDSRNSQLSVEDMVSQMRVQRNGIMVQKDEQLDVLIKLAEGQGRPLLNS
Protocol notes: Inhibition of Yersinia pseudotuberculosis YopH
Measured property: pKi
Scale: negative log10 of molar concentration, which is what pKi denotes.

Query: Answer with reported pKi of O=C(O)c1ccccc1O [SALICYLIC ACID]
Result: 3.00
